Each recorded value in this set is attributed to patent US7157487B2.

# Target Entity: integrins haα4 and β1 (VLA-4) expressed on CHO cells (Homo sapiens, UniProt P05556+P13612)
# Sequence (P13612 34-1032): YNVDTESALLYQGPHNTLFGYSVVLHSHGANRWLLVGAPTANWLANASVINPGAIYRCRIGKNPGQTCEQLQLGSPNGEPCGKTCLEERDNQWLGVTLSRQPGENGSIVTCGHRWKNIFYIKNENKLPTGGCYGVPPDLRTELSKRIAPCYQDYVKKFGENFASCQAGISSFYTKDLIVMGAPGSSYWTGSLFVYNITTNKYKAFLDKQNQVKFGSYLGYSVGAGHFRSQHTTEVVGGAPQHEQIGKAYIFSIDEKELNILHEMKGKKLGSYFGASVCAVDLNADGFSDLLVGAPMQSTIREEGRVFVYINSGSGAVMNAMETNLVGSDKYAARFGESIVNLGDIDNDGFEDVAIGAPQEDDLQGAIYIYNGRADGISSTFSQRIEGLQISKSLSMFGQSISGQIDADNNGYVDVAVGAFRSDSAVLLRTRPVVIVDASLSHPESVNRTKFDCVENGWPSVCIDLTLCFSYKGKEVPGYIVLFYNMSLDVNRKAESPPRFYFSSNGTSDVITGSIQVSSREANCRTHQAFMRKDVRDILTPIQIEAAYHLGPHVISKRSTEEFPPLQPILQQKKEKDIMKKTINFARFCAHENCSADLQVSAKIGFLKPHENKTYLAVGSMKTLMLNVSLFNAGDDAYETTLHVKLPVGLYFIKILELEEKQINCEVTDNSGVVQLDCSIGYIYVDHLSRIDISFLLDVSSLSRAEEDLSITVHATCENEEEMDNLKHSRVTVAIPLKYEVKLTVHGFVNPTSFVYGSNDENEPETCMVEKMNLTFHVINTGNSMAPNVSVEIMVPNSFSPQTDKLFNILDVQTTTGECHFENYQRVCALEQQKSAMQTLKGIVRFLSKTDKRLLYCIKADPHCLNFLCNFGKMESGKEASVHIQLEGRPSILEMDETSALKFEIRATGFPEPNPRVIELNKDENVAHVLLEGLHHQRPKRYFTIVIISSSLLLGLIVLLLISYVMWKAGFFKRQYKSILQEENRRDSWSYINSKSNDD
# Sequence (P05556 21-798): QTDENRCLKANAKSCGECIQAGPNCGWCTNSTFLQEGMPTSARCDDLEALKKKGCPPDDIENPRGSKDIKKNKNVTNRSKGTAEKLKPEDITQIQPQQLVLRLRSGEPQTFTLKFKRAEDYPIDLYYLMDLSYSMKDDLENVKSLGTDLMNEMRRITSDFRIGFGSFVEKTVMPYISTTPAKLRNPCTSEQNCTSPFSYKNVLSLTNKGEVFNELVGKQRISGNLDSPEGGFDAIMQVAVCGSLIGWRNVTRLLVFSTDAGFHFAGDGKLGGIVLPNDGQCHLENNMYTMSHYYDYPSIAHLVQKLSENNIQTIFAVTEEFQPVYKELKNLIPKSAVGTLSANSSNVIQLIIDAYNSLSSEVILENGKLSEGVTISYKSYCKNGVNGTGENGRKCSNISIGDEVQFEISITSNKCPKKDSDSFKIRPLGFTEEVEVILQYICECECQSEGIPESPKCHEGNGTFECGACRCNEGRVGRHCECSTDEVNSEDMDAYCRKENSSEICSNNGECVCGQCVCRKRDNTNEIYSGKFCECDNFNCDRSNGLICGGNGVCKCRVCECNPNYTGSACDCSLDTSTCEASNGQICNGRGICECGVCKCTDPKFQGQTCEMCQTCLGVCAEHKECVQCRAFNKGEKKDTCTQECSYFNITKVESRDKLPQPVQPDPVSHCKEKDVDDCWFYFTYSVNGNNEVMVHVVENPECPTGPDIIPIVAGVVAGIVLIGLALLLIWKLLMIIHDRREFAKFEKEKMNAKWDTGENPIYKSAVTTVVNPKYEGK
# Protocol Description: In vitro Evaluation Test (1): binding of Eu3+-hVCAM-1 D1D7-IgG to CHO cells expressing integrins α4 and β1
# Cond: inhibition of Eu3+-hVCAM-1 D1D7-IgG binding to CHO cells expressing α4β1; Ki calculated from IC50
pKi: −log10 of the molar value.
Measurement Type: pKi

These recorded examples may help you get a feel for the data.
Cn1nc(C(=O)Nc2cc(F)c(CC(=O)N3C[C@@H](F)C[C@H]3CO[C@H]3CC[C@H](C(=O)O)CC3)cc2Cl)c2ccccc21    8.04
CO[C@H]1C[C@@H](CO[C@H]2CC[C@H](C(=O)O)CC2)N(C(=O)Cc2cc(Cl)c(NC(=O)c3nsc4ccccc34)cc2F)C1    8.30
O=C(Cc1ccc(Nc2nc3cc(F)ccc3o2)c(Cl)c1)N1C[C@@H](F)C[C@H]1CO[C@H]1CC[C@H](C(=O)O)CC1    8.25

A = Cn1nc(C(=O)Nc2ccc(CC(=O)N3C[C@@H](F)C[C@H]3CO[C@H]3CC[C@H](C(=O)O)CC3)cc2Cl)c2ccccc21
B = C[C@H]1C[C@@H](CO[C@H]2CC[C@H](C(=O)O)CC2)N(C(=O)Cc2cc(Cl)c(NC(=O)c3cn(C)c4ccccc34)cc2F)C1
Looking only at measured pKi, which entry is lower, A or B ? Choose, then provide that item's label.
B

###

# Protocol Description: Pharmacokinetics and oral bioavailability in dogs
# Assay type: in vivo
# Cond: 2 /kg; Dog, oral, Dose/kg 2.0; plasma, LC/MS/MS
Measurement Type: AUC (ng·h/mL)
Report the figure in ng·h/mL without appending any unit label.

Cc1ccccc1Nc1nc2ccc(CC(=O)N3C[C@@H](F)C[C@H]3COC3CCC(C(=O)O)CC3)cc2o1 (single isomer, unassigned) [21 (Isomer H)]    760

Now for a further compound.
Returns the measured AUC for the input compound. Input: CO[C@H]1C[C@@H](COC2CCC(C(=O)O)CC2)N(C(=O)Cc2ccc3nc(Nc4ccccc4C)oc3c2)C1 (single isomer, unassigned) [20 (Isomer A)]
776

###

# Target Entity: integrins haα4 and β1 (VLA-4) expressed on CHO cells (Homo sapiens, UniProt P05556+P13612)
# Protocol Description: In vitro Evaluation Test (1): binding of Eu3+-hVCAM-1 D1D7-IgG to CHO cells expressing integrins α4 and β1
# Cond: inhibition of Eu3+-hVCAM-1 D1D7-IgG binding to CHO cells expressing α4β1; Ki calculated from IC50
pKi: −log10 of the molar value.
Measurement Type: pKi

Solved entries (count: 2):
Cc1ccccc1Nc1nc2ccc(CC(=O)N3C[C@@H](F)C[C@H]3C(=O)N3CCC(CC(=O)O)CC3)cc2o1 [Example 31]    7.80
Cn1cc(-c2nc3ccc(CC(=O)N4CCC[C@H]4CO[C@H]4CC[C@H](C(=O)O)CC4)cc3o2)c2ccc(F)cc21 [Example 131]    7.77

P = CO[C@H]1CCN(C(=O)Cc2cc(Cl)c(NC(=O)c3nn(C)c4ccccc34)cc2F)[C@@H]1CO[C@H]1CC[C@H](C(=O)O)CC1 [Example 169]
Q = O=C(Cc1cc(Cl)c(Nc2nc3cc(F)ccc3s2)cc1F)N1C[C@@H](F)C[C@H]1CO[C@H]1CC[C@H](C(=O)O)CC1 [Example 63]
Hey, between P and Q which has a smaller measured pKi? State the label of the item chosen.
P

###

# Protocol Description: Evaluation of oral bioavailability by mouse bioassay
# Type: in vivo
# Cond: 10 mg/kg oral, female Balb/C mice, serum 15 minutes after administration, read-out: Blood level
Measurement Type: concentration at 15 min (ng/mL)

O=C(Nc1ccc(CC(=O)N2C[C@@H](F)C[C@H]2CO[C@H]2CC[C@H](C(=O)O)CC2)cc1Cl)c1nsc2ccccc12    1540
COC[C@H]1CC[C@@H](CO[C@H]2CC[C@@H](C(=O)O)CC2)N1C(=O)Cc1ccc2nc(Nc3cc(F)ccc3C)oc2c1F    816
Cn1cc(-c2nc3ccc(CC(=O)N4C[C@@H](F)C[C@H]4CO[C@H]4CC[C@H](C(=O)O)CC4)cc3o2)c2cc(F)ccc21    533
Cn1cc(-c2nc3ccc(CC(=O)N4C[C@@H](F)C[C@H]4CO[C@H]4CC[C@H](C(=O)O)CC4)c(F)c3o2)c2ccccc21    2210
C=CCO[C@H]1C[C@@H](CO[C@H]2CC[C@H](C(=O)O)CC2)N(C(=O)Cc2cc(Cl)c(NC(=O)c3cn(C)c4ccccc34)cc2F)C1    2930
CO[C@H]1C[C@@H](CO[C@H]2CC[C@H](C(=O)O)CC2)N(C(=O)Cc2cc(Cl)c(NC(=O)c3nn(C)c4ccccc34)cc2F)C1    4410

A = CCCO[C@H]1C[C@@H](CO[C@H]2CC[C@H](C(=O)O)CC2)N(C(=O)Cc2cc(Cl)c(NC(=O)c3cn(C)c4ccccc34)cc2F)C1
B = Cc1ccc(Cl)cc1Nc1nc2ccc(CC(=O)N3C[C@@H](F)C[C@H]3CO[C@H]3CC[C@H](C(=O)O)CC3)c(F)c2o1
C = O=C(Cc1ccc(Nc2nc3ccccc3o2)c(Cl)c1)N1C[C@@H](F)C[C@H]1CO[C@H]1CC[C@H](C(=O)O)CC1
Put the molecules in ascending order of concentration at 15 min. State the ranking by listing the labels in the requested order.
C, B, A
(C: 508 ng/mL, B: 1190 ng/mL, A: 5730 ng/mL)

###

# Target Entity: integrins haα4 and β1 (VLA-4) expressed on CHO cells (Homo sapiens, UniProt P05556+P13612)
# Protocol Description: In vitro Evaluation Test (1): binding of Eu3+-hVCAM-1 D1D7-IgG to CHO cells expressing integrins α4 and β1
# Cond: inhibition of Eu3+-hVCAM-1 D1D7-IgG binding to CHO cells expressing α4β1; Ki calculated from IC50
Measurement Type: Ki (nM)

Cc1ccccc1Nc1nc2ccc(CC(=O)N3C[C@H](O)C[C@H]3CO[C@H]3CC[C@H](C(=O)O)CC3)cc2o1    29
Cc1ccc(Cl)cc1Nc1nc2ccc(CC(=O)N3C[C@@H](F)C[C@H]3CO[C@H]3CC[C@H](C(=O)O)CC3)c(F)c2o1    6
O=C(Nc1cc(F)c(CC(=O)N2C[C@@H](F)C[C@H]2CO[C@H]2CC[C@H](C(=O)O)CC2)cc1Cl)c1nccc2ccccc12    25
Cn1cc(C(=O)Nc2cc(F)c(CC(=O)N3C[C@@H](F)C[C@H]3CO[C@H]3CC[C@H](C(=O)O)CC3)cc2Cl)c2ccc(F)cc21    51
Cn1cc(C(=O)Nc2cc(F)c(CC(=O)N3C[C@@H](F)C[C@H]3CO[C@H]3CC[C@H](C(=O)O)CC3)cc2Cl)c2ccccc21    4
O=C(Cc1ccc(Nc2nc3ccc(F)cc3s2)c(Cl)c1)N1C[C@@H](F)C[C@H]1CO[C@H]1CC[C@H](C(=O)O)CC1    7.3
COC[C@H]1C[C@@H](CO[C@H]2CC[C@H](C(=O)O)CC2)N(C(=O)Cc2ccc3nc(Nc4cc(F)ccc4C)oc3c2F)C1    1.8
Cn1cc(C(=O)Nc2cc(F)c(CC(=O)N3C[C@@H](F)C[C@H]3CO[C@H]3CC[C@H](C(=O)O)CC3)cc2Cl)c2c(F)cccc21    21

1 = CC(C)[C@H]1CC[C@@H](CO[C@H]2CC[C@H](C(=O)O)CC2)N1C(=O)Cc1cc(Cl)c(NC(=O)c2cn(C)c3ccccc23)cc1F
2 = O=C(Cc1ccc2nc(N3CCc4ccccc43)oc2c1F)N1C[C@@H](F)C[C@H]1CO[C@H]1CC[C@H](C(=O)O)CC1
# returns the entry with the larger Ki; inputs 1 and 2 Please respond with the label that marks your chosen entry.
2

A = Cc1cc(F)ccc1Nc1nc2ccc(CC(=O)N3C[C@@H](F)C[C@H]3CO[C@H]3CC[C@H](C(=O)O)CC3)c(F)c2o1
B = Cc1ccc(F)cc1Nc1nc2ccc(CC(=O)N3[C@H](CO[C@H]4CC[C@H](C(=O)O)CC4)CC[C@@H]3C)c(F)c2o1
Lower value of Ki belongs to which: A or B ? API: response body contains the label of the selected item.
B

###

# Protocol Description: Pharmacokinetics and oral bioavailability in dogs
# Type: in vivo
# Cond: plasma, oral, 2 /kg; Dog, Dose/kg 2.0; read-out: CLtot (mL/min/kg) apparent plasma clearance
The compounds listed here are annotated with their clearance.
Write down the numeric answer in mL/min/kg and omit the unit.

Sample Cc1ccccc1Nc1nc2ccc(CC(=O)N3C[C@@H](F)C[C@H]3COC3CCC(C(=O)O)CC3)cc2o1 (single isomer, unassigned) [21 (Isomer H)] — what was its clearance?
17.9

Which clearance is listed for CO[C@H]1C[C@@H](COC2CCC(C(=O)O)CC2)N(C(=O)Cc2ccc3nc(Nc4ccccc4C)oc3c2)C1 (single isomer, unassigned) [20 (Isomer A)] ?
19.1
